# Test Description: Clinical dose guiding study: plasma pharmacokinetics and urinary recovery
# Type: in vivo, human
# Particulars: human, plasma, oral; Day 28; BID and QD IR treatments; read-out: median Tmax and Tmax1
# Description: This study was a randomized, double-blind (sponsor-open), parallel, placebo-controlled, multiple oral dose-escalating study of Compound 1 (in the form of its tris salt) in participants with type 2 diabetes mellitus (T2DM) on a background of metformin monotherapy. A total of 98 participants received oral doses of Compound 1 (in the form of its tris salt) or matching placebo for 28 days, in this study. […]
Measure: Tmax

Query: Need Tmax of N#Cc1ccc(COc2cccc(C3CCN(Cc4nc5ccc(C(=O)O)cc5n4C[C@@H]4CCO4)CC3)n2)c(F)c1 , thanks.
Reply: 3 to 10 h

----------
# Test Description: Clinical dose guiding study: plasma pharmacokinetics and urinary recovery
# Type: in vivo, human
# Particulars: human, plasma; Day 1, single oral dose; IR formulation, QD and BID regimens; read-out: median Tmax and Tmax1
# Text: This study was a randomized, double-blind (sponsor-open), parallel, placebo-controlled, multiple oral dose-escalating study of Compound 1 (in the form of its tris salt) in participants with type 2 diabetes mellitus (T2DM) on a background of metformin monotherapy. A total of 98 participants received oral doses of Compound 1 (in the form of its tris salt) or matching placebo for 28 days, in this study. […]
Measure: Tmax

Query: Need Tmax of N#Cc1ccc(COc2cccc(C3CCN(Cc4nc5ccc(C(=O)O)cc5n4C[C@@H]4CCO4)CC3)n2)c(F)c1 , thanks.
Reply: 2 to 4 h

----------
# Test Description: Clinical dose guiding study: plasma pharmacokinetics and urinary recovery
# Assay type: in vivo, human
# Particulars: human, plasma, oral; across all treatments; read-out: Mean t % (terminal half life)
Measure: half-life

Query: Need half-life of N#Cc1ccc(COc2cccc(C3CCN(Cc4nc5ccc(C(=O)O)cc5n4C[C@@H]4CCO4)CC3)n2)c(F)c1 [Compound 1] , thanks.
Reply: 4.7 to 8.1 h
